Molecular target: Serine/threonine-protein kinase pim-2 (Homo sapiens) (UniProt Q9P1W9)
Sequence (Q9P1W9 whole entry, looked up): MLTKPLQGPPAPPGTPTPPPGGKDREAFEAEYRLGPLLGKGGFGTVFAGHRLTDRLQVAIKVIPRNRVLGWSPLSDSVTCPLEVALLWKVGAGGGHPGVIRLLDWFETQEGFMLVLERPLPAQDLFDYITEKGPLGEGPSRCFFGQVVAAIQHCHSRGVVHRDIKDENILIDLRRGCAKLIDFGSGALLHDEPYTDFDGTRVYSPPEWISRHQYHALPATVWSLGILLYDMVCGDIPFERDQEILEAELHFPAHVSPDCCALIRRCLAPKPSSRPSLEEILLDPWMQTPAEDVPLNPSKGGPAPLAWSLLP
Test: Inhibition of human full length Pim-2 using RSRHSSYPAGT as substrate assessed as residual activity at 10 uM after 30 mins in presence of [gamma-33P]ATP; values are per cent of control
Grouping by measured residual activity is done with the following cut points: label 0 (below 70%), label 1 (70% to below 90%), label 2 (90% or more)

1. CCOC(=O)c1[nH]c2c(N)cc3cn[nH]c3c2c1-c1ccccc1 label 1
2. CCOC(=O)c1[nH]c2c(N)cc3cn[nH]c3c2c1C label 2
3. CCCc1c[nH]c2c(N)cc3cn[nH]c3c12 label 2
4. CCCc1c[nH]c2c([N+](=O)[O-])cc3cn[nH]c3c12 label 0
5. CCc1[nH]c2c([N+](=O)[O-])cc3cn[nH]c3c2c1-c1ccccc1 label 1

Which class is correct for the following compound? O=[N+]([O-])c1cc2cn[nH]c2c2cc[nH]c12
label 1

Which class is correct for the following compound? CCOC(=O)c1[nH]c2c([N+](=O)[O-])cc3cn[nH]c3c2c1-c1ccccc1
label 2

Which class is correct for the following compound? Cc1c[nH]c2c([N+](=O)[O-])cc3cn[nH]c3c12
label 0

Which class is correct for the following compound? CCOCc1c[nH]c2c([N+](=O)[O-])cc3cn[nH]c3c12
label 0

====

Target: Serine/threonine-protein kinase pim-3 (Homo sapiens, UniProt Q86V86)
Assay: Inhibition of human full length Pim-3 using RSRHSSYPAGT as substrate assessed as residual activity at 10 uM after 30 mins in presence of [gamma-33P]ATP; values are per cent of control
Reported residual activity by item:
The reply should contain only the number, in %.

Look over these answered cases.
1) Nc1cc2cn[nH]c2c2c(-c3ccccc3)c[nH]c12 26
2) CCOC(=O)c1[nH]c2c(N)cc3cn[nH]c3c2c1-c1ccccc1 20
3) CCCc1c[nH]c2c(N)cc3cn[nH]c3c12 39
4) CCOCc1c[nH]c2c([N+](=O)[O-])cc3cn[nH]c3c12 19
5) Cc1c[nH]c2c([N+](=O)[O-])cc3cn[nH]c3c12 26

// lookup residual activity for CCCc1c(C(=O)OC)[nH]c2c(N)cc3cn[nH]c3c12
12

// lookup residual activity for CCOC(=O)c1[nH]c2c([N+](=O)[O-])cc3cn[nH]c3c2c1C
47

// lookup residual activity for CCOC(=O)c1[nH]c2c(N)cc3cn[nH]c3c2c1C
26

// lookup residual activity for CCCc1c(C(=O)OC)[nH]c2c([N+](=O)[O-])cc3cn[nH]c3c12
24

// lookup residual activity for Cc1c[nH]c2c(N)cc3cn[nH]c3c12
17

// lookup residual activity for CCCc1c[nH]c2c([N+](=O)[O-])cc3cn[nH]c3c12
6

// lookup residual activity for O=[N+]([O-])c1cc2cn[nH]c2c2c(-c3ccccc3)c[nH]c12
21

// lookup residual activity for C[Si](C)(C)c1cc2c([nH]1)c(N)cc1cn[nH]c12
24

====

Target: Serine/threonine-protein kinase pim-2 (Homo sapiens)
Experiment: Inhibition of human full length Pim-2 using RSRHSSYPAGT as substrate assessed as residual activity at 10 uM after 30 mins in presence of [gamma-33P]ATP; values are per cent of control
Reported residual activity by item:
// return the numeric value with its unit appended

Look over these answered cases.
1) CCOC(=O)c1[nH]c2c([N+](=O)[O-])cc3cn[nH]c3c2c1C 97%
2) CCCc1c(C(=O)OC)[nH]c2c([N+](=O)[O-])cc3cn[nH]c3c12 85%

// lookup residual activity for C[Si](C)(C)c1cc2c([nH]1)c(N)cc1cn[nH]c12
111%

// lookup residual activity for C[Si](C)(C)c1cc2c([nH]1)c([N+](=O)[O-])cc1cn[nH]c12
64%

// lookup residual activity for O=Cc1c[nH]c2c([N+](=O)[O-])cc3cn[nH]c3c12
70%
